biological target: human Notch3-Gal4 chimeric receptor on U2OS FlpIn TREx cells (human, UniProt Q9UM47 40-2321); assay: cell-based or functional assay
The binders listed here are annotated with their hN3, inhibition of Luc activity at [166 nM] Mab.

Previously resolved entries follow.
>  <binder>
WC-173 (antibody, human IgG1, lambda, V domains shown, also called N1wc173; hN1wc-173) VH: EVQLVQSGAEVKKPGASVKVSCKASGYNFTGYYMHWVRQAPGQGLEWMGWINPNSGGTNYAQKFQGRVTMTRDTSISTAYMELSRLRSDDTAVYYCATDSFDYWGQGTTVTVSS VL: QPVLTQPPSASWTPGQRVTISCSGSSSNIGSNTVHWYRQFPGTAPQLLIYSNNQRPSGVPDRFSGSKSGTSASLAIRGLQSEDEADYYCAAWDDSLNGVVFGGGIKLTVLQ

>  <value.measured>
< 20%

$$$$
>  <binder>
WC-97 (antibody, human IgG1, lambda, V domains shown, also called N1wc97; hN1wc-97) VH: EVQLVQSGAEVKKPGASVKVSCKASGYNFTGYYMHWVRQAPGQGLEWMGWINPNSGGTNYAQKFQGRVAMTRDTSISTAYMELSRLRSDDSAVYYCATDSFDYWGRGTTVTVSS VL: QSVLTQPPSVSGAPGQRVTISCTGTSSNIGAGYDVQWYQQLPGTAPKVLMYGNSNRPSGVPDRFSGSKSGTSASLAITGLQAEDEADYYCQSYDSSLSGSLFGTGTKVTVLQ

>  <value.measured>
< 10%

$$$$
>  <binder>
S3-013 (antibody, human IgG1, lambda, V domains shown, also called hN1S3-013; HN1S3-13) VH: EVQLVQSGAEVKKPGASVKVSCKASGYNFTGYYMHWVRQAPGQGLEWMGWINPNSGGTNYAQKFQGRVTMTRDTSISTAYMELSRLRSDDTAVYYCATDSFDYWGRGTLVTVSS VL: QPVLTQPPSASGTPGQRVTISCSGSSSNIGSNYVYWYQKFPGTAPKLLIYTNNQRPSGVPDRFSGSKSGTSASLAISGLRSEDEADYYCAAWDDSLSGVVFGGGTKVTVLQ

>  <value.measured>
< 10%

$$$$
>  <binder>
WC-75 (antibody, human IgG1, lambda, V domains shown) VH: GVQLVQSGGGLVQPGGSLRLSCAASGFTFDDYAMHWVRQAPGKGLEWVSSISWHSRTIAYADSVKGRFSISRDNAKNSLYLQMNSLRPEDTAVYYCAKASYLSTSSSLDYWGRGTLVTVSS VL: QSVLTQPGSVSGSPGQSITISCTGTSSDVGGYNYVSWYQQHPGKAPKLMIYEGSKRPSGVSNRFSGSKSGNTASLTISGLQAEDEADYYCSSYTTRSTRVFGGGTKLTVLQ

>  <value.measured>
< 10%

$$$$
>  <binder>
WC-159 (antibody, human IgG1, lambda, V domains shown, also called N1wc159) VH: QLQLVETGGGLVKPGESLTLSCAASGFTFSSYSMNWVRQAPGKGLEWVSSISSSGSSIYYADSLKGRFTISRDNAKNSLYLQMNSLRAEDTAVYYCTRGTQWLAGVGDYWGKGTLVTVSS VL: QSALTQPPSASASPGQSVTISCTGTSSDVGAYDSVSWYQQHPGKAPKLIIYDVNNRPSGVSNRFSGSESGNTASLTISGLQAEDEANYYCSSYRNTKTVVFGGGTKLTVLQ

>  <value.measured>
< 10%

$$$$

# next binder below
Q) Fill blank: measured hN3, inhibition of Luc activity at [166 nM] Mab of the binder WC-155 (antibody, human IgG1, lambda, V domains shown, also called N1wc155; hN1wc-155) VH: EVQLVQSGAEVKKPGASVKVSCKASGYNFTGYYMHWVRQAPGQGLEWMGWINPNSGGTNYAQKFQGRVTMTRDTSISTAYMELSRLRSDDTAVYYCATDSFDYWGRGTLVTVSS VL: QSVLTQPPSVSGAPGQRVTISCTGSSSNIGAGYDVLWYRQLPGTAPKLLIYGNTHRPSGVPDRFSGSNSGTSASLAITGLQAEDEADYYCQSYDSSLSGSVFGGGTKLTVLQ is ____.
A) < 10%
